assay: endothelial E-selectin expression blockers – imaging, HUVEC, immunofluorescence, MLSMR starter and 10KST1 sets, primary screen (AID 487); conditions: HUVEC TNFalpha-induced E-selectin immunofluorescence imaging, at 2 µM; active compounds read high;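 also: signal is fraction of cell area covered by stained E-selectin grains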
Active and inactive are the calls of the source.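 The calls were made as follows: active = visually confirmed hit in the image check and inhibition above 20%; inconclusive = visually confirmed hit but inhibition not above 20%; inactive = no visual hit in the image check.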
Measured Parameter: inhibition

| Compound | Measured Parameter | Measured Value |
| --- | --- | --- |
| CCOC(=O)CSC1=C(C#N)C(c2ccc(Cl)cc2)C(C(=O)OC)C(=O)N1 (stereo unspecified) | inhibition | -80% (inactive) |
| CC1=NC(Nc2nc(C)c3ccccc3n2)=NC(C)(C)C1 | inhibition | -13% (inactive) |
| CCCN(CCC)CCNS(=O)(=O)c1ccc2c(c1)oc(=O)n2C | inhibition | -106% (inactive) |
| CC1CN(c2nc3ccccc3nc2C(C#N)C(=O)OC2CCCCC2)CC(C)O1 (stereo unspecified) | inhibition | -12.3% (inactive) |
| CC(C)c1ccc(C(O)c2cnc(C(C)C)n2C)cc1 (stereo unspecified) | inhibition | -93.9% (inactive) |
| CC(=O)c1cc2c(=O)c3cc(C)ccc3oc2nc1C | inhibition | -96.2% (inactive) |
| COc1ccccc1-c1nnc(SCC(=O)N2CC(C)CC(C)C2)o1 (stereo unspecified) | inhibition | 28% (inactive) |
| CC(=O)/C(C[N+]1(C)CCCCC1)=N\O | inhibition | 26.6% (inactive) |
| Cc1cc(C)c(S(=O)(=O)N(C)CC(N)=O)c(C)c1 | inhibition | -60.9% (inactive) |
| COc1ccc(OC)c(C(=O)CSc2nc3ncccc3[nH]2)c1 | inhibition | 52.6% (inactive) |
| CCOc1ccc(OCC)c(NS(=O)(=O)c2ccc3c(c2)n(C)c(=O)c(=O)n3C)c1 | inhibition | -27.6% (inactive) |
| Cc1cc2nc3c(nc2cc1C)C1(C(=O)O)CCC3(C)C1(C)C (stereo unspecified) | inhibition | -109% (inactive) |
| O=C1CCC(C(=O)N(Cc2ccco2)C2(C(=O)NC3CCCC3)CCCCC2)N1 (stereo unspecified) | inhibition | -39.9% (inactive) |
| COc1ccc(C2C(C(C)=O)=C(O)C(=O)N2C)c(OC)c1 (stereo unspecified) | inhibition | -48.3% (inactive) |
| O=C(COC(=O)c1ccccc1C(=O)c1ccccc1)c1ccco1 | inhibition | 4% (inactive) |
| O=C(NCc1cccs1)C1CC(c2ccccc2O)=NO1 (stereo unspecified) | inhibition | -122% (inactive) |
| O=C(CSc1nnnn1C1CCCC1)Nc1cccc(NC(=O)c2ccco2)c1 | inhibition | -76.4% (inactive) |
| Cc1noc(C)c1S(=O)(=O)N1CCC(C(=O)N2CCN(Cc3ccc4c(c3)OCO4)CC2)CC1 | inhibition | -40.5% (inactive) |
| CCOc1cc(NC(=O)c2ccccn2)c(OCC)cc1NC(=O)CC(C)C | inhibition | -76.1% (inactive) |
| Cc1nc(N2CCN(c3ncccn3)CC2)c2oc3ccccc3c2n1 | inhibition | -56.1% (inactive) |
| CCN(CC(=O)NCc1cccs1)C(=O)c1cc(S(=O)(=O)N2CCOCC2)ccc1C | inhibition | -82.2% (inactive) |
| CCN(CC)C(=O)c1sc(NC(=O)c2ccco2)c(C#N)c1C | inhibition | 1.3% (inactive) |
| CC(C)Oc1ccc(-c2nn(-c3ccccc3)cc2/C=c2\sc3ncnn3c2=O)cc1 | inhibition | -335% (inactive) |
| CCOc1ccc(N(C(C)C(=O)NC2CCCCCC2)S(C)(=O)=O)cc1 (stereo unspecified) | inhibition | -40.2% (inactive) |
| CC(C)(C)C1CCc2c(sc3c2C(=O)NC(c2ccco2)N3)C1 (stereo unspecified) | inhibition | 15.7% (inactive) |
| Cc1ccc(S(=O)(=O)N2CCC(C(=O)N3CCN(Cc4ccccc4)CC3)CC2)cc1 | inhibition | -40.7% (inactive) |
| Nc1nc(N)nc(-c2ccccc2)n1 | inhibition | 22.3% (inactive) |
| COc1ccccc1C(=O)N1CCN(CCc2ccccc2)CC1 | inhibition | 6% (inactive) |
| Cc1cc(C)n2nc(C(=O)NCc3ccco3)nc2n1 | inhibition | -3.3% (inactive) |
| O=C(Nc1ccc2c(c1)nc1n2CCSC1)c1ccccc1 | inhibition | -0.8% (inactive) |
| CS(=O)(=O)Nc1ccccc1C(=O)O | inhibition | -81.2% (inactive) |
| Cc1nc(SCC(=O)NCc2ccco2)c2c(C)c(C)sc2n1 | inhibition | -4.2% (inactive) |
| Cc1c(C#N)c(N)c(C(=O)c2ccccc2)n1Cc1ccccc1 | inhibition | -38% (inactive) |
| COc1cccc(NC(=O)N(CCCN2CCOCC2)C(C)c2cc3cccc(OC)c3o2)c1 (stereo unspecified) | inhibition | -93.2% (inactive) |
| CCOC(=O)C(NC(=O)CC)(Nc1ccc(S(=O)(=O)Nc2onc(C)c2C)cc1)C(F)(F)F (stereo unspecified) | inhibition | -27.3% (inactive) |
| O=C(CSc1nnc(Cc2ccccc2)n1C1CCCCC1)N1CCOCC1 | inhibition | -264% (inactive) |
| CCOP(=O)(c1ccc(N(C)C)cc1)C(O)c1c(Cl)cccc1Cl (stereo unspecified) | inhibition | -64.5% (inactive) |
| CCOC(=O)c1ccc2[nH]c3c(c2c1)CCCCC3=O | inhibition | 32% (inactive) |
| CCc1ccccc1N1C(=O)C2CC(C)=C(C)CC2C1=O (stereo unspecified) | inhibition | -355% (inactive) |
| CCNc1ccc(S(=O)(=O)C(F)(F)F)cc1NC(=O)C12CCC(CC1)C2 | inhibition | -30.6% (inactive) |
| Cc1cc(C)n2nc(SCc3nc4ccccc4[nH]3)nc2n1 | inhibition | -21.3% (inactive) |
| CCn1c(CNc2ccc(OC)cc2)nnc1SCC(=O)c1ccc(OC)cc1 | inhibition | -101% (inactive) |
| O=C(NC(=O)c1ccc(Cl)cc1)Nc1cc(N2CCCCC2)ncn1 | inhibition | -70% (inactive) |
| Cc1ccc(OCC(O)Cn2c(NCCc3ccccc3)nc3c2c(=O)[nH]c(=O)n3C)cc1 (stereo unspecified) | inhibition | -5.4% (inactive) |
| O=C(Nc1ccc2[nH]c3c(c2c1)CCCC3)c1ccco1 | inhibition | 78.9% (active) |
| Cc1cc(=O)oc(C)c1C(=O)O | inhibition | -3.9% (inactive) |

----------
test: inhibitors of TNFa-induced NFkB p65 translocation, primary screen, imaging, HUVEC, MLSMR starter and 10KST1 sets (AID 438); conditions: HUVEC TNFa-induced p65 nuclear translocation; at 2 µM, active compounds read high, 0% TNFa-plus-vehicle, 100% no-TNFa wells;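 also: compound added about 3h40 before a 20 min TNFalpha stimulation; signal is the nuclear over cytoplasmic p65 intensity ratio per well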

| Molecule | inhibition (%) |
| --- | --- |
| Cc1ccc2[nH]c3c(=O)n(CCCN4CCN(C)CC4)cnc3c2c1 | 1 |
| O=C(O)CSc1ncn[nH]1 | -14.4 |
| CCOC(=O)Cn1c(CN2CCOCC2)nc2c1c(=O)[nH]c(=O)n2C | -1 |
| CCCCN(CC)S(=O)(=O)c1ccc2c(c1)CCCN2C(C)=O | 2.9 |
| CCC1(C)Cc2c(C#N)c(N)n(-c3ccccc3)c(=O)c2CO1 (stereo unspecified) | -8.6 |
| Cn1c(=O)c2c(nc(SCCCO)n2Cc2ccccc2Cl)n(C)c1=O | 7.2 |
| O=C(c1ccco1)N1CCN(S(=O)(=O)c2ccc(C3CCCCC3)cc2)CC1 | 7.2 |
| Cc1sc2ncnc(Oc3ccc(-n4ccnc4)cc3)c2c1C | -13.2 |
| Cc1ccc(C2c3c(oc4ccccc4c3=O)C(=O)N2c2nnc(C(C)C)s2)o1 (stereo unspecified) | -13.1 |
| Nc1nc(CSc2nc3ccccc3[nH]2)nc(N2CCOCC2)n1 | -17.6 |
| COc1ccccc1C(=O)Nc1ccc(N2CCN(Cc3ccccc3)CC2)cc1 | 12 |

----------
assay: inhibitors of TNFa-induced NFkB p65 translocation, primary screen, imaging, HUVEC, MLSMR starter and 10KST1 sets (AID 438); details: HUVEC TNFa-induced p65 nuclear translocation; at 2 µM, active compounds read high, 0% TNFa-plus-vehicle, 100% no-TNFa wells;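 also: compound added about 3h40 before a 20 min TNFalpha stimulation; signal is the nuclear over cytoplasmic p65 intensity ratio per well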

| Compound | inhibition / % |
| --- | --- |
| CC(CC(=O)NCc1ccccc1)C1CCCO1 (centres undefined) | -2 |
| COCCNC(=O)NC(=O)COC(=O)Cc1ccc2c(c1)OCCO2 | 5.1 |
| CS(=O)(=O)N(CC(=O)Nc1ccc2c(c1)OCCO2)Cc1ccccc1 | -4.7 |
| Cc1nn(Cc2ccccc2)c(C)c1NC(=O)c1cc(-c2ccco2)on1 | -8.1 |
| COc1cc(C(=O)N2CCN(C(=O)CC(C)C)CC2)cc(OC)c1OC | 3.6 |
| Cn1c(=O)[nH]c(=O)c2c1nc(N1CCc3ccccc3C1)n2CCSc1nc2ccccc2s1 | 4.7 |
| COc1ccc(NC(=O)C2CCCCN2S(=O)(=O)c2ccc(F)cc2)cc1 (centres undefined) | 3.7 |
| CCCOc1ccc(C2C(C(=O)c3ccc(C)o3)=C(O)C(=O)N2Cc2cccnc2)cc1 (centres undefined) | -2.8 |
| COc1ccccc1OCc1ccc(C(=O)Nc2ccncc2)o1 | -7.3 |
| CCOc1cc(NC(=O)c2ccccn2)c(OCC)cc1NC(=O)CC(C)C | -11.5 |
| c1cc2c(cc1C1CCCN1)OCCCO2 (centres undefined) | -7.9 |
| O=C(O)CCC(=O)NC1CCCCC1NC(=O)CCC(=O)O (centres undefined) | 4 |
| O=C(COC(=O)CCc1c[nH]c2ccccc12)NC1CCS(=O)(=O)C1 (centres undefined) | 4.7 |
| O=C(CN(c1ccc(F)cc1)S(=O)(=O)c1ccc2c(c1)OCCO2)Nc1cccnc1 | 1.6 |
| CCc1cc2c(NCCC(=O)O)nc(C)nc2s1 | -13.7 |
| CC(NC(=O)NC12CC3CC(CC(C3)C1)C2)C1CCCO1 (centres undefined) | 2.9 |
| COC1CCCCC1NS(=O)(=O)c1ccccc1 (centres undefined) | 1.4 |
| CC(=O)Nc1c(O)n(C)c2ccccc12 | -24.1 |
| COCCCNC(=O)C1CCCN(C(=O)Nc2ccc(OC)cc2)C1 (centres undefined) | -14.8 |
| COC(=O)c1ccccc1S(=O)(=O)N(CCCO)Cc1cc2c(C)ccc(C)c2[nH]c1=O | -5.1 |
| Cc1c(NS(=O)(=O)c2ccc3c(c2)n(C)c(=O)n3C)c(=O)n(-c2ccccc2)n1C | 2.7 |
| [O-][n+]1c2c(nn1-c1ccccc1Cl)-c1nonc1CC2 | -26.9 |
| COc1ccc2c(C(F)(F)F)cc(=O)oc2c1C | -1.8 |
| C=C(c1cccc2ccccc12)P(=O)(O)O | 11.9 |
